# experiment.description: physchem

{"columns": ["compound", "solubility, µM"],
 "data": [
  ["Cc1[nH]nc2c1C(c1ccccc1)(C(F)(F)F)C1=C(CC(C)(C)CC1=O)N2 (stereo not shown)", 410]
]}

---

# assayed.system: GSK3β (Homo sapiens)
# experiment.description: biochemical
IC50 strictly under 8 µM means 1.0; at 8 µM or over means 0.0.

{"columns": ["molecule", "assayed.system", "group"],
 "data": [
  ["CC[C@]1(c2cccc(C(F)(F)F)c2)C2=C(CC(C)(C)CC2=O)Nc2n[nH]cc21 (stereo in doubt)", "GSK3β (Homo sapiens)", 0.0],
  ["COc1cc(F)ccc1[C@@H]1C2=C(CC(C)(C)CC2=O)Nc2n[nH]c(C(C)C)c21", "GSK3β (Homo sapiens)", 1.0],
  ["COc1ccccc1[C@@]1(C)C2=C(CC(C)(C)CC2=O)Nc2n[nH]c(C3CC(F)(F)C3)c21 (stereo in doubt)", "GSK3β (Homo sapiens)", 0.0],
  ["CC[C@]1(c2ccccc2)C2=C(CC(C)(C)CC2=O)Nc2n[nH]cc21 (stereo in doubt)", "GSK3β (Homo sapiens)", 0.0],
  ["CC[C@]1(c2ccccc2)C2=C(CC(C)(C)CC2=O)Nc2n[nH]c(C3CC3)c21 (stereo in doubt)", "GSK3β (Homo sapiens)", 1.0],
  ["CCC1(c2ccccc2)C2=C(CC(C)(C)CC2=O)Nc2n[nH]c(C3CC3)c21 (racemic)", "GSK3β (Homo sapiens)", 1.0],
  ["CCc1ccccc1[C@H]1C2=C(CC(C)(C)CC2=O)Nc2n[nH]c(C(C)C)c21", "GSK3β (Homo sapiens)", 1.0]
]}

---

Reported IC50 values for a set of compounds
# assayed.system: GSK3β (Homo sapiens, UniProt P49841)
# Sequence (P49841 whole entry): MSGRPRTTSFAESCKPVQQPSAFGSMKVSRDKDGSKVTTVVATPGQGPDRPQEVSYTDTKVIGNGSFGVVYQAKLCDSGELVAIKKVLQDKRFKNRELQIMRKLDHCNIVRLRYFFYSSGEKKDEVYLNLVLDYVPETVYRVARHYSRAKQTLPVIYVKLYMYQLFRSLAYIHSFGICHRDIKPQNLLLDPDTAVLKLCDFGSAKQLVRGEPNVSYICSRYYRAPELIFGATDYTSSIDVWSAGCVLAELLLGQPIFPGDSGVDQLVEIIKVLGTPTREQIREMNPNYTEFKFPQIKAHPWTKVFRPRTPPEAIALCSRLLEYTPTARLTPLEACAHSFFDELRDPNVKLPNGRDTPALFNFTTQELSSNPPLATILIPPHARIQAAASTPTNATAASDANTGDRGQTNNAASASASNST
# experiment.description: biochemical
quantity.name: IC50

{"columns": ["compound", "observed.value"],
 "data": [
  ["CC1(C)CC(=O)C2=C(C1)Nc1n[nH]c(C3CC(F)(F)C3)c1[C@]21CCc2c(F)cccc21 [Compound 263]", "2.06 µM"],
  ["CCC(C)(C)Cc1[nH]nc2c1[C@]1(CCc3cc(F)ccc31)C1=C(CC(C)(C)CC1=O)N2 (stereo in doubt) [Compound 294]", "0.785 µM"],
  ["CC1(C)CC(=O)C2=C(C1)Nc1n[nH]c(C3CCCCC3)c1[C@]2(C)c1ccccc1 (stereo in doubt) [Compound 304]", "0.977 µM"],
  ["COc1ccccc1[C@@H]1C2=C(CC(C)(C)CC2=O)Nc2n[nH]c(CC(C)(C)C)c21 (stereo in doubt) [Compound 280]", "1.91 µM"],
  ["CC(C)Cc1[nH]nc2c1[C@](C)(c1ccccc1)C1=C(CC(C)(C)CC1=O)N2 (stereo in doubt) [Compound 307]", "0.041 µM"],
  ["CC[C@]1(c2ccccc2)C2=C(CC3(CCCCC3)CC2=O)Nc2n[nH]cc21 (stereo in doubt) [Compound 235]", "> 33 µM"],
  ["CC[C@]1(c2cc(Cl)cc(Cl)c2)C2=C(CC(C)(C)CC2=O)Nc2n[nH]cc21 (stereo in doubt) [Compound 222]", "11.3 µM"],
  ["CCC1(c2cccc(C(C)(C)C)c2)C2=C(CC(C)(C)CC2=O)Nc2n[nH]cc21 (racemic) [Compound 225]", "0.086 µM"],
  ["CC1(C)CC(=O)C2=C(C1)Nc1n[nH]c(C3CCCCC3)c1C2(C)c1ccccc1 (racemic) [Compound 303]", "0.746 µM"],
  ["CC[C@@]1(c2ccccc2)C2=C(CC3(CCCCC3)CC2=O)Nc2n[nH]cc21 (stereo in doubt) [Compound 234]", "1.03 µM"],
  ["CC1(C)CC(=O)C2=C(C1)Nc1n[nH]c(C3CC(F)(F)C3)c1[C@@]21COc2ccccc21 [Compound 256]", "0.002 µM"],
  ["CC1(C)CC(=O)C2=C(C1)Nc1n[nH]c(C(F)(F)F)c1C2c1cccc(OC(F)(F)F)c1 (centres unmarked) [Compound 57]", "< 0.1 µM"],
  ["CC1(C)CC(=O)C2=C(C1)Nc1n[nH]c(C3CCCC3)c1[C@]2(C)c1ccccc1 (stereo in doubt) [Compound 301]", "0.372 µM"],
  ["CC(C)(C)Cc1[nH]nc2c1[C@@]1(CCc3cc(F)ccc31)C1=C(CC(C)(C)CC1=O)N2 (stereo in doubt) [Compound 285]", "0.011 µM"]
]}

---

# assayed.system: GSK3α (Homo sapiens, UniProt P49840)
# Sequence (P49840 whole entry): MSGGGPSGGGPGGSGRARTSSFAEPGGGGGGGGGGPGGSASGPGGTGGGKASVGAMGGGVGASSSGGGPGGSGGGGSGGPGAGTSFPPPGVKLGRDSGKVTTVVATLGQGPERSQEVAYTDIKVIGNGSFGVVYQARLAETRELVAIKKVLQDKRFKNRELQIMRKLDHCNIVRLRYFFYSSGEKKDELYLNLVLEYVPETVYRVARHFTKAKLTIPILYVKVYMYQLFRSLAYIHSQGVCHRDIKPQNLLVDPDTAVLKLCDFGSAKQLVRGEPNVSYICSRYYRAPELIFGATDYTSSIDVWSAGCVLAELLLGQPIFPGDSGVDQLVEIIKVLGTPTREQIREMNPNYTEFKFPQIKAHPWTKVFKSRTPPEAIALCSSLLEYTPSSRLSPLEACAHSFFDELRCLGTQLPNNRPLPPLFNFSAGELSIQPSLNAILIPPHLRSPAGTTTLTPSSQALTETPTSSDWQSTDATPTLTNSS
# experiment.description: biochemical
pIC50: −log10 of the molar value.
Would you mind labelling by pIC50? At or over 6 is rule met, under is rule not met.

{"columns": ["compound", "group"],
 "data": [
  ["CC(C)c1[nH]nc2c1[C@](C)(c1ccccc1)C1=C(CC(C)(C)CC1=O)N2 (stereo in doubt)", "rule met"],
  ["CC1(C)CC(=O)C2=C(C1)Nc1n[nH]c(C3CC(F)(F)C3)c1[C@]21CCc2cc(F)ccc21", "rule met"],
  ["CC1(C)CC(=O)C2=C(C1)Nc1n[nH]cc1[C@@]2(C)c1cccc(C#N)c1 (stereo in doubt)", "rule not met"],
  ["CCC[C@]1(c2ccccc2)C2=C(CC(C)(C)CC2=O)Nc2n[nH]cc21 (stereo in doubt)", "rule not met"],
  ["CC1(C)CC(=O)C2=C(C1)Nc1n[nH]cc1[C@]2(C)c1cccc(C(F)(F)F)c1 (stereo in doubt)", "rule met"],
  ["CC[C@@]1(c2cccc(Cl)c2)C2=C(CC(C)(C)CC2=O)Nc2n[nH]cc21 (stereo in doubt)", "rule met"],
  ["COc1ccccc1C1C2=C(CC(C)(C)CC2=O)Nc2n[nH]c(C3CC(F)(F)C3)c21 (racemic)", "rule met"],
  ["COc1ccccc1[C@@]1(C)C2=C(CC(C)(C)CC2=O)Nc2n[nH]c(C3CC(F)(F)C3)c21 (stereo in doubt)", "rule not met"],
  ["CC1(C)CC(=O)C2=C(C1)Nc1n[nH]cc1[C@@]2(C)c1cccc(C(F)(F)F)c1 (stereo in doubt)", "rule met"],
  ["CC(C)[C@]1(c2ccccc2)C2=C(CC(C)(C)CC2=O)Nc2n[nH]cc21 (stereo in doubt)", "rule not met"]
]}

---

Reported IC50 values for a set of compounds
# assayed.system: GSK3β (Homo sapiens)
# experiment.description: biochemical

{"columns": ["compound", "IC50"],
 "data": [
  ["COc1ccccc1[C@H]1C2=C(CC(C)(C)CC2=O)Nc2n[nH]c(C)c21", "1000 to 5000 nM"],
  ["Cc1ccccc1C1C2=C(CC(C)(C)CC2=O)Nc2n[nH]c(C)c21 (centres unmarked)", "101 to 1000 nM"],
  ["COc1ccccc1C1C2=C(CCCC2=O)Nc2n[nH]c(C)c21 (centres unmarked)", "1000 to 5000 nM"],
  ["Cc1[nH]nc2c1C(C1CC1)C1=C(CC(C)(C)CC1=O)N2 (centres unmarked)", "1000 to 5000 nM"],
  ["CC1(C)CC(=O)C2=C(C1)Nc1n[nH]c(C(F)(F)F)c1C2c1ccc(F)cc1C(F)(F)F (centres unmarked)", "101 to 1000 nM"],
  ["COc1ccccc1C1C2=C(CC(C)(C)CC2=O)Nc2n[nH]c(C(C)C)c21 (centres unmarked)", "101 to 1000 nM"],
  ["CCc1[nH]nc2c1C(c1ccccc1OC)C1=C(CC(C)(C)CC1=O)N2 (centres unmarked)", "101 to 1000 nM"],
  ["COc1ccccc1C1C2=C(CC(C)(C)CC2=O)Nc2n[nH]c(C(C)(C)C)c21 (centres unmarked)", "101 to 1000 nM"],
  ["Cc1[nH]nc2c1C(C)C1=C(CC(C)(C)CC1=O)N2 (centres unmarked)", "1000 to 5000 nM"],
  ["CC1(C)CC(=O)C2=C(C1)Nc1n[nH]c(C(F)(F)F)c1C2c1ccccc1F (centres unmarked)", "101 to 1000 nM"],
  ["CC1(C)CC(=O)C2=C(C1)Nc1n[nH]c(C(F)(F)F)c1C2c1cc(F)ccc1OC(F)(F)F (centres unmarked)", "101 to 1000 nM"],
  ["Cc1cccc(C2C3=C(CC(C)(C)CC3=O)Nc3n[nH]c(C)c32)c1 (centres unmarked)", "101 to 1000 nM"],
  ["Cc1[nH]nc2c1C(c1ccccc1Br)C1=C(CC(C)(C)CC1=O)N2 (centres unmarked)", "101 to 1000 nM"],
  ["COc1ccccc1C1C2=C(CC(C)(C)CC2=O)Nc2n[nH]c(-c3ccccc3)c21 (centres unmarked)", "1000 to 5000 nM"],
  ["CC1(C)CC(=O)C2=C(C1)Nc1n[nH]c(C(F)(F)F)c1C2c1cc(F)ccc1F (centres unmarked)", "101 to 1000 nM"],
  ["COc1ccccc1C1C2=C(CC3(CCCCC3)CC2=O)Nc2n[nH]c(C)c21 (centres unmarked)", "101 to 1000 nM"],
  ["COc1ccccc1C1C2=C(CCC(C)(C)C2=O)Nc2n[nH]c(C)c21 (centres unmarked)", "101 to 1000 nM"]
]}
